B1: ATE1 (parent)
chain: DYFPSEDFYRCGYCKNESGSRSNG

- Variants of: B1
- Measurement protocol: protein stability index of a GFP-peptide fusion (GPS, HEK-293T) (PSI 1-6); higher = more stable;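 note: lentivirally expressed fusions sorted by FACS into six bins by GFP to DsRed ratio, PSI derived from sequencing read proportions per bin multiplied by bin number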
- Measurement setup: c terminus: a fixed tail appended
Record label 1 whenever protein stability index is at 2 or higher; record label 0 when lower.

E6G: label 0

Exam item: Does `R10Y` have a reported protein stability index of at least 2?
Marked response: label 1

Exam item: Does `S5D` have a reported protein stability index of at least 2?
Marked response: label 1
